Form field: TGI (one value per entry).
# Tested on: NCI/ADR-RES ovarian
# Method: NCI tumour cell line growth inhibition, 48 h

{"Molecule": "COc1cc(-c2nn(-c3ccc(NC(=O)c4ccc(Cl)c(C(F)(F)F)c4)cc3)cc2-c2ccncc2)ccc1Cl", "TGI": "> 100 µM"}
{"Molecule": "Cc1cn(C2CC(n3cc(Cn4cc(I)c(=O)[nH]c4=O)nn3)C(CO)O2)c(=O)[nH]c1=O (centres undefined)", "TGI": "> 100 µM"}
{"Molecule": "O=C(Cc1cccs1)N[C@@H]1C(=O)N2C(C(=O)OC(c3ccccc3)c3ccccc3)=C(CO)CS[C@H]12", "TGI": "> 100 µM"}
{"Molecule": "NC(=O)c1cccc2cn(-c3ccc([C@@H]4CCCNC4)cc3)nc12", "TGI": "> 74.5 µM"}
{"Molecule": "O=C(NNC(=O)c1ccccc1SSc1ccccc1C(=O)NNC(=O)c1ccccc1S)c1ccccc1S", "TGI": "> 73.6 µM"}
{"Molecule": "Cc1ccc(C(=O)/C(=C/c2ccc([N+](=O)[O-])cc2)SCc2ccc(Cl)cc2)cc1", "TGI": "6.81 µM"}
{"Molecule": "OCc1ccc(N2CCC2c2ccc(F)cc2)cc1Cl (centres undefined)", "TGI": "> 88.8 µM"}
{"Molecule": "Cc1ccc(NC2=C(Cl)C(=O)N(Cc3ccccc3)C2=O)cc1O", "TGI": "> 100 µM"}
{"Molecule": "Cn1c2ccccc2c2c(Nc3ccccc3)c3ccccc3nc21", "TGI": "> 100 µM"}
{"Molecule": "COC(=O)c1cc2c(n1S(=O)(=O)c1ccc(C)cc1)C(=O)C(=O)c1[nH]cc(C(=O)OCc3ccccc3)c1-2", "TGI": "5.26 µM"}
{"Molecule": "O=C(Nc1ccccc1)NS(=O)(=O)c1ccc(-n2nc3c(c2-c2cccs2)Cc2ccccc2-3)cc1", "TGI": "43 µM"}
{"Molecule": "CCCCOC(=O)C1OC(O[C@H]2CCC3(C)C(CCC4(C)C3CC=C3C5CC(C)(C)CCC5(C(=O)O)CC[C@]34C)C2(C)C)C(OC2OC(CO)C(O)C(O)C2O)C(OC2OC(CO)C(O)C(O)C2O)C1O (some centres undefined)", "TGI": "> 100 µM"}
{"Molecule": "O=c1[nH][nH]c(=O)n1Cc1ccccc1Cn1c(=O)[nH][nH]c1=O", "TGI": "> 100 µM"}
{"Molecule": "Cc1cccc(/C=N/NC(=S)Nc2ccccc2)n1", "TGI": "10.8 µM"}
{"Molecule": "Cc1ccsc1/C=N/Nc1ncccn1", "TGI": "> 100 µM"}
{"Molecule": "CC12CCC(O)CC1CCC1C2CCC2(C)C(C3=CC(=O)OC3)CCC12O (centres undefined)", "TGI": "5.77 µM"}
{"Molecule": "Cn1cnc([N+](=O)[O-])c1Sc1nnc(-c2cccnc2)n1C", "TGI": "> 100 µM"}
{"Molecule": "COc1ccc(-c2nc3sccn3c2/C(N)=N/C(=N)N)cc1OC", "TGI": "> 100 µM"}
{"Molecule": "N=c1n(C(=O)N2CCCC2)c2cc(Cl)ccc2n1C1=NCCN1", "TGI": "> 100 µM"}

====

Overview of reported TGI across a group of molecules:
# Test system: SN12C renal
# Method: NCI tumour cell line growth inhibition, 48 h
Where a SMILES comes first, the peptide text is derived from it. [ ]: non-standard residue; d: D form. The star is where a group is joined. ξ: configuration not given here. X6 = FC(F)(F)c1cc(NC(=S)*)cc(C(F)(F)F)c1; ξF = NC(Cc1ccccc1)C(=O)O
Readout type: TGI

{"Molecule": "CCC[C@@H](O)C[C@@H]1CCC[C@H](C[C@@H](O)CC)N1C", "Readout type": "TGI", "Result": "> 100 µM"}
{"Molecule": "C=C1c2nc3ccccc3n2C=C(c2ccccc2)N1c1ccc([N+](=O)[O-])cc1", "Readout type": "TGI", "Result": "> 95.2 µM"}
{"Molecule": "CC(C)CC(=O)OC[n+]1ccc(-c2c(COC(=O)NC(C)C)c(COC(=O)NC(C)C)c3n2CCC3)cc1", "Readout type": "TGI", "Result": "> 100 µM"}
{"Molecule": "CC(=O)Nc1ccc(-c2nnc(SCC(=O)Nc3ccc([N+](=O)[O-])cc3)o2)cc1", "Readout type": "TGI", "Result": "29.8 µM"}
{"Molecule": "COc1ccc(/C=C2\\CCC(C)C3=C2NC(=S)NC3c2ccc(OC)c(OC)c2)cc1OC (stereo unspecified)", "Readout type": "TGI", "Result": "> 31.6 µM"}
{"Molecule": "CN/N=C(/Cc1occc(=O)c1O)C(=O)Nc1ccccc1C", "Readout type": "TGI", "Result": "> 100 µM"}
{"Molecule": "CCN(CCO)CC1CCCC2CCCCC21 (stereo unspecified)", "Readout type": "TGI", "Result": "> 100 µM"}
{"Molecule": "N#CN=C(N(Cc1ccccc1)Cc1ccccc1)N(Cc1ccccc1)Cc1ccccc1", "Readout type": "TGI", "Result": "> 100 µM"}
{"Molecule": "Brc1ccc(N=c2nc3ccccn3n3nc(-c4ccccc4)cc23)cc1", "Readout type": "TGI", "Result": "> 100 µM"}
{"Molecule": "O=C1CCC23CC(C=CC=C12)n1c(=O)n(-c2ccccc2)c(=O)n13 (stereo unspecified)", "Readout type": "TGI", "Result": "> 100 µM"}
{"Molecule": "COc1cc(/C=C/C(=N\\NS(=O)(=O)c2ccc(C)cc2)c2sc(NNC(C)=O)nc2C)ccc1O", "Readout type": "TGI", "Result": "> 100 µM"}
{"Molecule": "O=[N+]([O-])C(=C1NCCN1)/C(Cl)=C(\\Cl)Br", "Readout type": "TGI", "Result": "> 100 µM"}
{"Molecule": "CCc1ccc(CCN2CCCCC2)nc1", "Readout type": "TGI", "Result": "> 100 µM"}
{"Molecule": "OCc1ccc(N2CCC2c2ccc(F)cc2)cc1Cl (stereo unspecified)", "Readout type": "TGI", "Result": "> 63.8 µM"}
{"Molecule": "O=C1/C(=C/c2ccccc2)CN(C(=O)C(Cl)(Cl)Cl)C/C1=C\\c1ccccc1", "Readout type": "TGI", "Result": "3.12 µM"}
{"Molecule": "Clc1ccc(/C=C/c2nc3ccccc3s2)cc1Cl", "Readout type": "TGI", "Result": "> 100 µM"}
{"Molecule": "COc1cc(/C=N/NC(=O)c2ccc(C(F)(F)F)nc2Nc2ccc(Cl)cc2C)ccc1O", "Readout type": "TGI", "Result": "16.5 µM"}
{"Molecule": "O=C(O)CSc1ccc([N+](=O)[O-])cc1[N+](=O)[O-]", "Readout type": "TGI", "Result": "> 100 µM"}
{"Molecule": "COC(=O)[C@@H](NC(=O)CNC(=O)[C@H]1CCCN1C(=O)C(Cc1ccccc1)NC(=S)Nc1cc(C(F)(F)F)cc(C(F)(F)F)c1)C(C)C (stereo partly specified) (X6-[ξF][dP]GV-OMe)", "Readout type": "TGI", "Result": "4.26 µM"}
{"Molecule": "CCCCCN(CCCCC)CCCNc1c2c(nc3ccc(Cl)cc13)CCCC2", "Readout type": "TGI", "Result": "12.8 µM"}
{"Molecule": "CC1(C)CCc2c(c3c(c4c(=O)c(O)c(-c5ccc(O)cc5)oc24)OC(C)(C)CC3)O1", "Readout type": "TGI", "Result": "> 100 µM"}

====

# Test system: HT29 colon
# Method: NCI tumour cell line growth inhibition, 48 h; in the data active = GI50 below about 0.43 µM; inactive = the rest
Classes used: active, inactive

{"Compound": "O=C(Nc1ccccc1OC(F)(F)F)Nc1n[nH]c2ccccc12", "Group label": "inactive"}
{"Compound": "CC/C=C\\CCC/C=C1/C(=O)C=C[C@@H]1C/C=C\\CCCC(=O)OC", "Group label": "inactive"}
{"Compound": "CCC(CO)Nc1nc2ccc(Cl)cc2c2ccccc12 (stereo unspecified)", "Group label": "inactive"}
{"Compound": "NC(Cc1c[nH]c2c(O)cccc12)C(=O)O (stereo unspecified)", "Group label": "inactive"}
{"Compound": "COC1=CC(c2ccc[nH]2)=N/C1=C\\c1[nH]c(C)c(C(=O)OC(C)C)c1C", "Group label": "active"}
{"Compound": "O=C1CC(c2ccc3c(c2)OCO3)Nc2ccccc21 (stereo unspecified)", "Group label": "inactive"}

====

# Test system: IGROV1 ovarian
# Method: NCI tumour cell line growth inhibition, 48 h
Recorded TGI, one value per entry.

{"Compound": "O=C(COc1ccc(Br)cc1Br)N1N=C(c2ccc([N+](=O)[O-])o2)CC1(O)c1ccccc1 (stereo unspecified)", "Test target": "IGROV1 ovarian", "TGI": "75.9 µM"}
{"Compound": "NC(=O)c1cccc2cn(-c3ccc([C@@H]4CCCNC4)cc3)nc12", "Test target": "IGROV1 ovarian", "TGI": "52.3 µM"}
{"Compound": "O=C1CC(c2ccc3c(c2)OCO3)Nc2ccccc21 (stereo unspecified)", "Test target": "IGROV1 ovarian", "TGI": "47.8 µM"}
{"Compound": "Cc1ccc2c(=O)cc(-c3ccc(F)cc3)[nH]c2n1", "Test target": "IGROV1 ovarian", "TGI": "> 100 µM"}
{"Compound": "CC1=C(C(=O)NCc2ccccc2)C(/C=C/c2ccccc2)C(C(=O)NCc2ccccc2)=C(C)N1", "Test target": "IGROV1 ovarian", "TGI": "> 100 µM"}
{"Compound": "COc1cc2c(cc1OC)C(c1ccccc1CCCCl)=NCC2", "Test target": "IGROV1 ovarian", "TGI": "> 100 µM"}
{"Compound": "Nc1cccc2cc(Cl)cnc12", "Test target": "IGROV1 ovarian", "TGI": "> 100 µM"}
{"Compound": "CCCCC(=O)OCC(=O)[C@]1(O)Cc2c(O)c3c(c(O)c2[C@@H](OC2CC(NC(=O)C(F)(F)F)C(O)C(C)O2)C1)C(=O)c1c(OC)cccc1C3=O (stereo partly specified)", "Test target": "IGROV1 ovarian", "TGI": "17 µM"}
{"Compound": "CCOC(=O)C1=C(C)NC(=S)NC1c1ccccc1 (stereo unspecified)", "Test target": "IGROV1 ovarian", "TGI": "> 100 µM"}
{"Compound": "CC(C)CCCCCCCCCCCCC(=O)NCC(=O)NC1C(C)OC(Nc2ncnc3c2ncn3C)C(O)C1O (stereo unspecified)", "Test target": "IGROV1 ovarian", "TGI": "> 100 µM"}
{"Compound": "O=C1C2C(C(=O)N1OS(=O)(=O)c1ccccc1)N(Cc1ccccc1)C(=O)N2Cc1ccccc1 (stereo unspecified)", "Test target": "IGROV1 ovarian", "TGI": "> 100 µM"}
